Target or test system: FGFR2 (h) (Homo sapiens)
Sequence (P21802 22-821): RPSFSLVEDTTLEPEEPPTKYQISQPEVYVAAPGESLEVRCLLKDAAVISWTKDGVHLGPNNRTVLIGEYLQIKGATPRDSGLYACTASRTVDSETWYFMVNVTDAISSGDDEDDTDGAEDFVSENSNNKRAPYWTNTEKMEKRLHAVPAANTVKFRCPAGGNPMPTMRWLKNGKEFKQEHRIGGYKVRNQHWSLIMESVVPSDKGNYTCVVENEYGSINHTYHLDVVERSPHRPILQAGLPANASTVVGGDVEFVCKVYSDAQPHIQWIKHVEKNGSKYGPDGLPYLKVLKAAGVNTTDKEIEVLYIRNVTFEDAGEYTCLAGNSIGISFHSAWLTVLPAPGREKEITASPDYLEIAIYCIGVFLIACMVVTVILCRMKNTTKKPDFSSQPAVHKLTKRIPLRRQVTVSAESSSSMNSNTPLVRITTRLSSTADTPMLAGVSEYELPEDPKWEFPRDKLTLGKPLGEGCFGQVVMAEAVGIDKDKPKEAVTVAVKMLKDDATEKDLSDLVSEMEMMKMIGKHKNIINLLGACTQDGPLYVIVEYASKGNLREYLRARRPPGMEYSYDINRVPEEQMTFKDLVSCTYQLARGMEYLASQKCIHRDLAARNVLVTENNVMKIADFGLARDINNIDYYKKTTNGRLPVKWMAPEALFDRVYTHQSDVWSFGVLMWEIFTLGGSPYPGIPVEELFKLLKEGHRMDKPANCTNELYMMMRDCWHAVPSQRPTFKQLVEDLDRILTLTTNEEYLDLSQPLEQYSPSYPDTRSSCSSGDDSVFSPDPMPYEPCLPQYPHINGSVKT
Protocol details: FGFR2 (enzymatic assay), TR-FRET
Type: biochemical
Condition details: enzymatic assay; average values if tested multiple times; read-out: FGFR 2 pIC50 (converted)
Where a name gives a salt, the structure may show the parent alone.
Could you mark each record met if its IC50 falls strictly under 5 nM, and not met if it equals or exceeds it?

• COc1cc(OC)cc(N(CC(O)C(F)(F)F)c2ccc3ncc(-c4cnn(C)c4)nc3n2)c1 (stereo not drawn) [Compound 8] = not met
• COc1cc(OC)cc(N(Cc2ncc[nH]2)c2ccc3ncc(-c4cnn(C)c4)nc3n2)c1 [24-sulphate salt] = met
• COCC(O)CN(c1ccc2ncc(-c3cnn(C)c3)nc2n1)c1c(F)c(OC)cc(OC)c1F (stereo not drawn) = met
• COc1cc(OC)c(F)c(N(Cc2nc3c([nH]2)CCNC3)c2ccc3ncc(-c4cnn(C)c4)nc3n2)c1 = met
• COCC(O)CN(c1cc(OC)cc(OC)c1)c1ccc2ncc(-c3cnn(C)c3)nc2n1 (stereo not drawn) = met
• COc1cc(OC)c(F)c(N(Cc2cnccn2)c2ccc3ncc(-c4cnn(C)c4)nc3n2)c1F = not met
• COc1cc(/N=c2\ccc3ncc(-c4cnn(C)c4)nc3n2CC2CCC(=O)N2)c(F)c(OC)c1 (stereo not drawn) [Compound 45] = met
• CNCCn1/c(=N/c2c(F)cccc2F)ccc2ncc(-c3cnn(C)c3)nc21 = not met
• CNCCN(c1ccc2ncc(-c3cnn(C)c3)nc2n1)c1c(Cl)c(OC)cc(OC)c1Cl = not met
• COc1cc(OC)c(F)c(N(Cc2nc[nH]c2C)c2ccc3ncc(-c4cnn(C)c4)nc3n2)c1 = met
• COc1cc(/N=c2\ccc3ncc(-c4cnn(C)c4)nc3n2CCCO)cc(OC)c1 = met
• CNCCn1/c(=N/c2c(F)ccc(OC)c2Cl)ccc2ncc(-c3cnn(C)c3)nc21 = not met
• COc1ccc(Cl)c(/N=c2\ccc3ncc(-c4cnn(C)c4)nc3n2CC2CCC(=O)N2)c1Cl (single isomer, unassigned) [Compound 89] = not met
• COc1cc(OC)c(F)c(N(Cc2nc3ccccc3[nH]2)c2ccc3ncc(-c4cnn(C)c4)nc3n2)c1 = met
• COc1cc(OC)c(F)c(N(Cc2ncc[nH]2)c2ccc3ncc(-c4cnn(C)c4)nc3n2)c1F = not met
• COc1cc(OC)c(F)c(N(Cc2c[nH]cn2)c2ccc3ncc(-c4cnn(C)c4)nc3n2)c1 = met
• COc1cc(OC)c(F)c(N(Cc2ncc[nH]2)c2ccc3ncc(-c4cnn(C)c4)nc3n2)c1 [23-fumarate salt] = met
• COc1cc(OC)c(F)c(N(Cc2nc[nH]n2)c2ccc3ncc(-c4cnn(C)c4)nc3n2)c1 = met
• COc1cc(OC)c(F)c(/N=c2\ccc3ncc(-c4cnn(C)c4)nc3n2CC2CCC(=O)N2)c1F (stereo not drawn) [Compound 193] = met
• CNCCN(c1ccc2ncc(-c3cnn(C)c3)nc2n1)c1c(F)c(OC)cc(OC)c1F = met
• COc1cc(OC)c(Cl)c(N(C[C@H]2CCC(=O)N2)c2ccc3ncc(-c4cnn(C)c4)nc3n2)c1Cl = not met
• COCC(O)Cn1c(=Nc2c(F)c(OC)cc(OC)c2F)ccc2ncc(-c3cnn(C)c3)nc21 (stereo not drawn) = met
• CNCCN(c1ccc2ncc(-c3cnn(C)c3)nc2n1)c1c(Cl)ccc(OC)c1Cl = not met
• COc1cc(/N=c2\ccc3ncc(-c4cnn(C)c4)nc3n2CC(O)COC(C)C)c(F)c(OC)c1 (single isomer, unassigned) = met
• COc1ccc(Cl)c(/N=c2\ccc3ncc(-c4cnn(C)c4)nc3n2CC2CCC(=O)N2)c1Cl (stereo not drawn) [Compound 92] = not met
• COc1cc(/N=c2\ccc3ncc(-c4cnn(C)c4)nc3n2CC2COC(=O)N2)c(F)c(OC)c1 (single isomer, unassigned) = met
• CNCCn1/c(=N/c2c(Cl)c(OC)cc(OC)c2Cl)ccc2ncc(-c3cnn(C)c3)nc21 = not met
